target: human ether-à-go-go-related gene (hERG) potassium channel (human); assay: primary screen, population patch clamp on CHO cells stably expressing hERG; higher = less effect of the substance
The whole screen tested about 310,000 compounds, of which about 14,000 (4.5%) showed an effect of 50% or more. The effect is printed as a negative number. Many of the other results were omitted from the sample, so strong results are more common in it than they were.
Lab note: compare hERG current change (%, negative = inhibition) at 10uM against -20%. Equal or greater, write t. Smaller, write f.

Determine whether measured hERG current change (%, negative = inhibition) at 10uM meets or exceeds -20% for `CCOc1ccc(CCNC(=O)CSc2cc(=O)n(C)c3ccc(Cl)cc23)cc1OCC`
f

Determine whether measured hERG current change (%, negative = inhibition) at 10uM meets or exceeds -20% for COc1c(C)cc(C(=O)C2CCCN(C(=O)/C=C/c3ccccn3)C2)cc1C (stereo not drawn)
t

Determine whether measured hERG current change (%, negative = inhibition) at 10uM meets or exceeds -20% for `COCCC(=O)N1CCC(Oc2ccc(C(=O)NCCSC)cc2)CC1`
t

Determine whether measured hERG current change (%, negative = inhibition) at 10uM meets or exceeds -20% for CCOC(=O)C1CCCN(C(=O)/C=C/c2ccc(Cl)cc2)C1 (stereo not drawn)
f

Determine whether measured hERG current change (%, negative = inhibition) at 10uM meets or exceeds -20% for `S=c1nc(C2CCCCC2)n(-c2ccccc2)[nH]1`
t

Determine whether measured hERG current change (%, negative = inhibition) at 10uM meets or exceeds -20% for `Cn1c(=O)cc(OCCCC(=O)NCCN2CCN(c3ccccc3F)CC2)c2ccccc21`
t

----------
biological target: human ether-à-go-go-related gene (hERG) potassium channel (human); experiment: primary screen, population patch clamp on CHO cells stably expressing hERG; higher = less effect of the substance
Screen size: about 310,000 compounds; about 14,000 (4.5%) showed an effect of 50% or more. The effect is printed as a negative number. For the sample, strong results were picked, then their nearest neighbours and some compounds at random.
recorded metric: hERG current change (%, negative = inhibition) at 10uM (%)
Numbers only; they are read as %.

So what does the record say about hERG current change (%, negative = inhibition) at 10uM for `COc1ccccc1Nc1nc(N)nc(CCl)n1` ?
3.4

So what does the record say about hERG current change (%, negative = inhibition) at 10uM for `NC(=S)Cc1nc2n(n1)Cc1ccccc1-2` ?
21.6

So what does the record say about hERG current change (%, negative = inhibition) at 10uM for `O=C(Cn1c(-c2ccccc2)noc1=O)NCc1ccccc1` ?
6.47

So what does the record say about hERG current change (%, negative = inhibition) at 10uM for `COc1ccc(C(=O)Nc2c3c(nn2-c2ccc([N+](=O)[O-])cc2)CS(=O)(=O)C3)cc1` ?
-9.85

So what does the record say about hERG current change (%, negative = inhibition) at 10uM for `COc1ccc(OCc2nc(N)nc(Nc3ccccc3OC)n2)cc1` ?
9.46

So what does the record say about hERG current change (%, negative = inhibition) at 10uM for `CCN(CCCNC(=O)C1CCN(C(=O)c2cc3sccc3n2C)CC1)Cc1ccccc1` ?
-38.4

So what does the record say about hERG current change (%, negative = inhibition) at 10uM for CCOc1cccc(CN2CCN(CCc3ccccc3)C(CCO)C2)c1O (stereo not shown) ?
-69.7

So what does the record say about hERG current change (%, negative = inhibition) at 10uM for `CCOC(=O)c1sc2nc(NC(=O)C(C)(C)C)sc2c1C` ?
-11.7

So what does the record say about hERG current change (%, negative = inhibition) at 10uM for COc1cccc(CN2CCN(CCCc3ccccc3)C(CCO)C2)c1OC (stereo not shown) ?
-48.6

----------
target: human ether-à-go-go-related gene (hERG) potassium channel (human); experiment: primary screen, population patch clamp on CHO cells stably expressing hERG; higher = less effect of the substance;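 also: peak tail current of the secondary pulse compared with the same well before compound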
Out of some 310,000 compounds screened, about 14,000 (4.5%) showed an effect of 50% or more. The effect is printed as a negative number. Shown is part of a subset that was picked to be rich in strong results.
Reported hERG current change (%, negative = inhibition) at 10uM values follow for various compounds
Numbers only; they are read as %.

Below, 3 compounds whose answers are already recorded.
So what does the record say about hERG current change (%, negative = inhibition) at 10uM for COc1ccc(C(CNC(=O)c2cccc(NC(=O)c3cccs3)c2)N2CCCC2)cc1 (stereo not drawn) ?
-58.8

So what does the record say about hERG current change (%, negative = inhibition) at 10uM for `CN(C)c1nc(N(C)C)nc(N(C#N)CCOc2ccccc2)n1` ?
-4.58

So what does the record say about hERG current change (%, negative = inhibition) at 10uM for COc1ccc(C(CNC(=O)c2cccc(Br)c2)N2CCCC2)cc1 (stereo not drawn) ?
-31.6

More entries:
So what does the record say about hERG current change (%, negative = inhibition) at 10uM for Cc1c(C(=O)N2CC(C)OC(C)C2)sc2nc(-c3ccc(F)cc3)cn12 (stereo not drawn) ?
-38.4

So what does the record say about hERG current change (%, negative = inhibition) at 10uM for `COc1ccc(-c2cn3c(C)c(C(=O)N4CCc5ccccc5C4)sc3n2)cc1` ?
-31.9

So what does the record say about hERG current change (%, negative = inhibition) at 10uM for COc1ccc(C(CNC(=O)c2cccc(S(=O)(=O)N3CCCCC3)c2)N2CCCC2)cc1 (stereo not drawn) ?
-43.8

----------
target: human ether-à-go-go-related gene (hERG) potassium channel (human); experiment: primary screen, population patch clamp on CHO cells stably expressing hERG; higher = less effect of the substance;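 also: peak tail current of the secondary pulse compared with the same well before compound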
The whole screen tested about 310,000 compounds, of which about 14,000 (4.5%) showed an effect of 50% or more. Effects have a minus sign here. The entries come from a sample that favours strong results as a whole.
recorded metric: hERG current change (%, negative = inhibition) at 10uM (%)
Numbers only; they are read as %.

Below, 4 molecules whose answers are already recorded.
So what does the record say about hERG current change (%, negative = inhibition) at 10uM for CN(C)c1ccc(CNCCC(Cc2ccccc2)c2ccco2)cc1 (centres unmarked) ?
-52.3

So what does the record say about hERG current change (%, negative = inhibition) at 10uM for `O=C(Nc1ccccc1N1CCOCC1)c1ccc(Br)o1` ?
1.26

So what does the record say about hERG current change (%, negative = inhibition) at 10uM for CC(NCCC(Cc1ccccc1)c1ccco1)c1ccccc1 (centres unmarked) ?
-22

So what does the record say about hERG current change (%, negative = inhibition) at 10uM for `O=C(NCCNCc1ccc(F)cc1)c1ccco1.O=C(O)C(=O)O` ?
9.99

Next, consider the following molecule.
So what does the record say about hERG current change (%, negative = inhibition) at 10uM for c1ccc(CNCCC(Cc2ccccc2)c2ccco2)cc1 (centres unmarked) ?
-54.8

----------
molecular target: human ether-à-go-go-related gene (hERG) potassium channel (human, UniProt Q12809); test: primary screen, population patch clamp on CHO cells stably expressing hERG; higher = less effect of the substance;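 also: peak tail current of the secondary pulse compared with the same well before compound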
Sequence (Q12809 whole entry, looked up): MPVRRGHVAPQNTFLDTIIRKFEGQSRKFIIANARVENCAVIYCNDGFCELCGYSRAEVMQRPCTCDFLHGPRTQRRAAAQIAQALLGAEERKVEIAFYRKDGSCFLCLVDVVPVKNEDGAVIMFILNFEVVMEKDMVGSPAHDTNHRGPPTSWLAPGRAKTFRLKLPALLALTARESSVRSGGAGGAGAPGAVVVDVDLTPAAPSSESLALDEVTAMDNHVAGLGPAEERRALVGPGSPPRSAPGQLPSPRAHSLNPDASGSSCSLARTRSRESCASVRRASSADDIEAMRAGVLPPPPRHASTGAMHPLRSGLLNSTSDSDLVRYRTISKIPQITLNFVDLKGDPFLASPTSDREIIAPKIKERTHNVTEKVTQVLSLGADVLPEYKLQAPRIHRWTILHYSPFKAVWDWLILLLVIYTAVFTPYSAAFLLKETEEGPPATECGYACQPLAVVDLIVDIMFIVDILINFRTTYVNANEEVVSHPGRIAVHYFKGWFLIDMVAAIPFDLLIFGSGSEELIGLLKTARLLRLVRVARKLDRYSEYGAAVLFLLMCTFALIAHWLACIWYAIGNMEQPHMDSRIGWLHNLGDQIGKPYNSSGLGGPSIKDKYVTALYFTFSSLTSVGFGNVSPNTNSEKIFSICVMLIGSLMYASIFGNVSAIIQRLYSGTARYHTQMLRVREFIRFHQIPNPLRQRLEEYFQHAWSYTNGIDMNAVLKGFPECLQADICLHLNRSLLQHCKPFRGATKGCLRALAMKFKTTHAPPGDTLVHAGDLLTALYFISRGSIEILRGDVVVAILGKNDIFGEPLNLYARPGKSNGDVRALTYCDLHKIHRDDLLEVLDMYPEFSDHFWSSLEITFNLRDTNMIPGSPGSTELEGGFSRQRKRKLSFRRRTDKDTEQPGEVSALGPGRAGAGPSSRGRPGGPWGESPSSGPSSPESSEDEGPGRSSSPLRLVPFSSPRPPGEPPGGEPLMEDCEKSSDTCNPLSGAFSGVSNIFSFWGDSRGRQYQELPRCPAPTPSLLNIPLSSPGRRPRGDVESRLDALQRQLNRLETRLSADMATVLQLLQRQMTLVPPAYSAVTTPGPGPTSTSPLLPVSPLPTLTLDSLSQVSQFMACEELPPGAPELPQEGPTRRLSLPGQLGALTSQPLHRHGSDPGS
The campaign covered roughly 310,000 compounds. About 14,000 (4.5%) showed an effect of 50% or more. The effect is printed as a negative number. Only a selection was taken, and strong results are over-represented in it overall.
recorded metric: hERG current change (%, negative = inhibition) at 10uM (%)
Numbers only; they are read as %.

Below, 2 compounds whose answers are already recorded.
So what does the record say about hERG current change (%, negative = inhibition) at 10uM for `O=C(O)c1ccc(N2C(=O)c3cccnc3C2=O)cc1` ?
16.9

So what does the record say about hERG current change (%, negative = inhibition) at 10uM for `CCCCC/C=C/C1=CC(=O)C[C@H](c2ccc(Cl)cc2)C1` ?
-47.4

Next, consider the following compound.
So what does the record say about hERG current change (%, negative = inhibition) at 10uM for `O=C1C=C(/C=C/c2ccccc2)C[C@@H](c2ccc3c(c2)OCO3)C1` ?
20

----------
Reported hERG current change (%, negative = inhibition) at 10uM values follow for various compounds
molecular target: human ether-à-go-go-related gene (hERG) potassium channel (human, UniProt Q12809); assay: primary screen, population patch clamp on CHO cells stably expressing hERG; higher = less effect of the substance;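 also: peak tail current of the secondary pulse compared with the same well before compound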
Among all 310,000 compounds or so, about 14,000 (4.5%) showed an effect of 50% or more. Effects have a minus sign here. Only a selection was taken, and strong results are over-represented in it overall.

Below, 5 compounds whose answers are already recorded.
So what does the record say about hERG current change (%, negative = inhibition) at 10uM for CCC(C)c1ccc(OCc2ccc(C(=O)OC)o2)cc1 (stereo not drawn) ?
-12.8%

So what does the record say about hERG current change (%, negative = inhibition) at 10uM for `O=C(Cn1nc(Cc2cccnc2)c2ccccc2c1=O)NCc1ccc2c(c1)OCO2` ?
-25.8%

So what does the record say about hERG current change (%, negative = inhibition) at 10uM for `CN(C)C(=O)CSc1nc2ccccc2n1Cc1ccccc1` ?
-11.8%

So what does the record say about hERG current change (%, negative = inhibition) at 10uM for O=C(Cn1nc(Cc2cccnc2)c2ccccc2c1=O)NCC1CCCO1 (stereo not drawn) ?
9.7%

So what does the record say about hERG current change (%, negative = inhibition) at 10uM for `C/C(=N\N1CCN(C2c3ccccc3-c3ccccc32)CC1)c1cccnc1` ?
-2.47%

More entries:
So what does the record say about hERG current change (%, negative = inhibition) at 10uM for `CCOCCCNC(=O)c1cn(CC)c2ccc(S(=O)(=O)N(C)C3CCCCC3)cc2c1=O` ?
-55.7%

So what does the record say about hERG current change (%, negative = inhibition) at 10uM for COCCN(C(=O)CC1C(=O)NCCN1Cc1ccc(-c2ccccc2)cc1)C(C)C (stereo not drawn) ?
1%

So what does the record say about hERG current change (%, negative = inhibition) at 10uM for `O=S(=O)(c1ccccc1C(F)(F)F)N1CCC(n2cnc3ccccc32)CC1` ?
-60.5%

So what does the record say about hERG current change (%, negative = inhibition) at 10uM for `O=C(O)CCSc1nc2ccccc2n1Cc1ccccc1` ?
24.1%

So what does the record say about hERG current change (%, negative = inhibition) at 10uM for `COc1ccc(S(=O)(=O)n2cnc3ccccc32)cc1.Cl` ?
13.4%

So what does the record say about hERG current change (%, negative = inhibition) at 10uM for `COC(=O)Cc1ccc(O)c(N)c1` ?
9.82%

So what does the record say about hERG current change (%, negative = inhibition) at 10uM for `CCn1c(N2CCN(S(=O)(=O)c3ccccc3C(F)(F)F)CC2)nc2ccccc21.Cl` ?
-39.6%

So what does the record say about hERG current change (%, negative = inhibition) at 10uM for CC(NC(=O)COC(=O)c1cn(-c2ccccc2)nc1-c1cccs1)c1ccccc1 (stereo not drawn) ?
0.115%

So what does the record say about hERG current change (%, negative = inhibition) at 10uM for `CCN(CC)CCSc1nc2ccccc2n1Cc1ccccc1.Cl` ?
-74.1%
